The measured values listed here are drawn from ChEMBL document CHEMBL2380249.

Recorded CC50 by entry
# methodDescription: Cytotoxicity against African green monkey Vero cells
# Assay type: cell-based
# conditionInfo: chlorocebus sabaeus
readoutType: CC50 (µM)

[
  {
    "compoundStructure": "C[C@@]1(O)[C@H](O)[C@@H](CO)O[C@H]1n1c2ncnc(N)c2c2c(=O)[nH]c(S)nc21",
    "u": "µM",
    "inequalitySymbol": ">",
    "readoutValue": 100
  },
  {
    "compoundStructure": "C[C@@]1(O)[C@H](O)[C@@H](CO)O[C@H]1n1c2ncnc(N)c2c2c(=O)[nH]c(=O)[nH]c21",
    "u": "µM",
    "inequalitySymbol": ">",
    "readoutValue": 100
  },
  {
    "compoundStructure": "Nc1ncnc2c1c1c(=O)[nH]c(S)nc1n2[C@@H]1O[C@H](CO)[C@@H](O)[C@H]1O",
    "u": "µM",
    "inequalitySymbol": "=",
    "readoutValue": 43.1
  },
  {
    "compoundStructure": "Cc1cn([C@H]2C[C@H](N=[N+]=[N-])[C@@H](CO)O2)c(=O)[nH]c1=O",
    "u": "µM",
    "inequalitySymbol": "=",
    "readoutValue": 53
  }
]
